measured.on: BAZ2A bromodomain (Homo sapiens, UniProt Q9UIF9)
Construct: BAZ2A and BAZ2B bromodomains were produced; made in house
Sequence (Q9UIF9 1793-1897 limits assumed): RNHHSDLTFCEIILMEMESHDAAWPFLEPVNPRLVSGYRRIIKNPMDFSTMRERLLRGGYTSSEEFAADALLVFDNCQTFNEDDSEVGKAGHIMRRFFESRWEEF
experimental.protocol: AlphaScreen binding competition, BAZ2A bromodomain
measurement.setup: compound at 100 μM
Entries annotated with measured % residual binding BAZ2A (100 μM)
Give a bare numeral; the unit % is implied.

CCOc1ccc(C(C)=O)cc1NC(=O)c1ccc(OCCN2CCNCC2)c(C(=O)OC)c1 [UP39] | 36
CN(C)CCCOc1ccc(-c2cc(NCCCn3cccn3)nc(S(C)(=O)=O)n2)cc1 [TP‐238] | 81
CCC(=O)N1CCOc2c(cc(-c3ccc(OC)c(OC)c3)cc2OC[C@H]2CCCN(C)C2)C1 [I‐CBP112] | 98
CC(=O)n1cc(-c2c(C)nn3c2OCC3)c2ccccc21 [UZH23] | 52
CN1C[C@H](Nc2cnn(C)c(=O)c2Br)C[C@H](c2ccccc2)C1 [GSK4027] | 77
COc1ccc(CCc2nc3cc(-c4c(C)noc4C)ccc3n2C[C@H](C)N2CCOCC2)cc1Cl [SGC‐CBP30] | 95

Query: Output measured % residual binding BAZ2A (100 μM) for this item: CO[C@H]1CNC[C@@H](OCC2CCC(F)(F)CC2)[C@@H]1Nc1ncc(-c2cncc(C)c2)c2cc(C)c(=O)[nH]c12 [GSK8814]
Reply: 88

###

Entries annotated with measured Kd
measured.on: BAZ2A bromodomain (Homo sapiens, UniProt Q9UIF9)
Construct: BAZ2A and BAZ2B bromodomains were produced
experimental.protocol: Isothermal titration calorimetry (ITC) on BAZ2A
measurement.setup: 25°C, 0.25% DMSO, read-out: K D BAZ2A
Give a bare numeral; the unit µM is implied.

Query: Output measured Kd for this item: "CN1C[C@H](Nc2cnn(C)c(=O)c2Br)C[C@H](c2ccccc2)C1"
Reply: 165

Query: Output measured Kd for this item: "CN(C)CCCOc1ccc(-c2cc(NCCCn3cccn3)nc(S(C)(=O)=O)n2)cc1"
Reply: 108

###

measured.on: BAZ2B bromodomain (Homo sapiens)
Construct: BAZ2A and BAZ2B bromodomains were produced; made in house
Sequence (Q9UIF8 2060-2164 limits assumed): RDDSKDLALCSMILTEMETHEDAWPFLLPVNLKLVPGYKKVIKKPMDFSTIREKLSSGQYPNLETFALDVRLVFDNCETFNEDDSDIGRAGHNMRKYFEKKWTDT
experimental.protocol: AlphaScreen binding competition, BAZ2B bromodomain
measurement.setup: compound at 100 μM
test.readout: % residual binding BAZ2B (100 μM) (%)
Give a bare numeral; the unit % is implied.

Reference set, count: 6
CN(C)CCCOc1ccc(-c2cc(NCCCn3cccn3)nc(S(C)(=O)=O)n2)cc1 | 77
CC(=O)n1cc(-c2c(C)nn3c2OCC3)c2ccccc21 | 62
CN1C[C@H](Nc2cnn(C)c(=O)c2Br)C[C@H](c2ccccc2)C1 | 70
CCC(=O)N1CCOc2c(cc(-c3ccc(OC)c(OC)c3)cc2OC[C@H]2CCCN(C)C2)C1 | 96
CO[C@H]1CNC[C@@H](OCC2CCC(F)(F)CC2)[C@@H]1Nc1ncc(-c2cncc(C)c2)c2cc(C)c(=O)[nH]c12 | 86
COc1ccc(CCc2nc3cc(-c4c(C)noc4C)ccc3n2C[C@H](C)N2CCOCC2)cc1Cl | 92

Query: Output measured % residual binding BAZ2B (100 μM) for this item: "CCOc1ccc(C(C)=O)cc1NC(=O)c1ccc(OCCN2CCNCC2)c(C(=O)OC)c1"
Reply: 42
